These measurements were taken from the nanobody polyreactivity screen of Harvey et al. (2022).

Experiment: yeast display, Sf9 membrane polyspecificity reagent, FACS + sequencing; frameworks hold sequencing errors

[
  {
    "Sequence content": "QVQLVESGGGLVQAGGRLRLSCAASGLTLRWYAMGWYRQAPGKERELVAVISGSGSTNYADSVKGRFTISRDNAKNTVYLQMNSLKPEDTAVYYCAAQSHLGTPQRFGYWGQGTQVTVSS",
    "polyreactivity (PSR sort gate)": "low polyreactivity"
  },
  {
    "Sequence content": "QVQLVESGGGLVQAGGSLRLSCAASGSTFVPNAMGWYRQAPGKEREFVAAIRVSGDNTYYADSVKGRFTISRDNAKNTVYLQMNSLKPEDTAVYYCAATGTVLGSVDYWGQGTQVTVSS",
    "polyreactivity (PSR sort gate)": "low polyreactivity"
  },
  {
    "Sequence content": "QVQLLESGGGLVQAGGSLRLSCAASGNTFTYYAMGWYRQAPGKERELVAAISDDGNTNYADSVMGRFTISRDNAKKTVYSQMNSLKPEDTAVYYCNADSYPSLNKRGYDYWGQGTQVTVSS",
    "polyreactivity (PSR sort gate)": "low polyreactivity"
  }
]

====

Experiment: yeast display, Sf9 membrane polyspecificity reagent, FACS + sequencing; frameworks hold sequencing errors
Measurement name: polyreactivity (PSR sort gate)

[
  {
    "Sequence content": "QVKLVESGGGLVQAGGSLRLSCADSGSIFYNNAMGWYRQAPGKERELVATIRRSGGSTYYADSVKGRFTISRDNAKNTVYLQMISLKPEDTAVDYCNAPPYLALVLIDYDYWGQGTQVTVSS",
    "Measurement name": "polyreactivity (PSR sort gate)",
    "Result": "low polyreactivity"
  },
  {
    "Sequence content": "QVQLVESGGGLVKAGGSLRLSCAASGITFLYYAMACYRQAPGKERELVAAISTSGGSTYYSDSVKGRFTISRDNAKNTVYLQMNSLKPEDTAVYYCAKSVGVGGEDRVGSWGQGTQVTVSS",
    "Measurement name": "polyreactivity (PSR sort gate)",
    "Result": "low polyreactivity"
  },
  {
    "Sequence content": "QVQLVESGGGLVQAGGSLRLSCAASGSIFAGYAMGWYRPAPGKERELVAAINWTGDSTYYADSVKGRFTISRDNAKNTVYLQMNSLKPEDTAVYYCAAIRRQKGLWDYYYWGQGTQVTVSS",
    "Measurement name": "polyreactivity (PSR sort gate)",
    "Result": "low polyreactivity"
  },
  {
    "Sequence content": "QVQLVESGGGLVQAGGSLRLSCAASGSTFSANPMGWYRQAPGKERELVASISRRGGSTYYADSVKGRFTISRDNAKNTVYLQMNNLKPEDTAVYYCAAYYEYRRDYWGQGTQVTVSS",
    "Measurement name": "polyreactivity (PSR sort gate)",
    "Result": "high polyreactivity"
  },
  {
    "Sequence content": "QVQLVESGGGLVQAGGSLRLSCAATARNFYRYAMAWYRQAPGKERELVARITSAGSTDYADSVKGRFTISRDNAKNTVYLQMNSLKPEDTAVYYCAAFGFSYRTFWYDYWGQGTQVTVSS",
    "Measurement name": "polyreactivity (PSR sort gate)",
    "Result": "high polyreactivity"
  },
  {
    "Sequence content": "QVQLVESGGGLVQAGGSLRLSCAASGSTLKYNALGWYRQAPGKERELVAAISTSGGNTYYADSVKGRFTISRDYAKNTVYLQMNTLKPEDTAVYYCAKVLGFYYYDYYTPFARGYWGQGTQVTVSS",
    "Measurement name": "polyreactivity (PSR sort gate)",
    "Result": "low polyreactivity"
  },
  {
    "Sequence content": "QVQLVESGGGLVQAGGSLRLSCAPSVRTFQYYAMGWYRPAPGKERELVAAINQGGGRTYYADSVKGRFTISRDTAKNTVYLQMNSLKPEDTAVYYCAADGLSKFDYWGQGTQVTVSS",
    "Measurement name": "polyreactivity (PSR sort gate)",
    "Result": "low polyreactivity"
  },
  {
    "Sequence content": "QVQLVEAGGGLVQAGVSLRLSCAASGSIFGYNAMGWYRQAPGKERELVAAISRRGTRTYYADSVKGRFTISRDTAKNTVYLQMNSLKPEDTAVYYCNASPSLDYDYWGQGTQVTVSS",
    "Measurement name": "polyreactivity (PSR sort gate)",
    "Result": "high polyreactivity"
  },
  {
    "Sequence content": "QVQLEESGGGLVQAGGSLRLSCAASGSIFPRFYAIGWYRQAPGKERELVAAISWRDGSTFYADSVKGRFTISRDNAKNTVYLQMNSLKPEDTGVYYCAAATYRYGYGYWGQGTQVTVSS",
    "Measurement name": "polyreactivity (PSR sort gate)",
    "Result": "high polyreactivity"
  },
  {
    "Sequence content": "QVQLVESGGGLVQAGGSLRLSGAASGSTFQYYAMGWYRQAPGKERELVAAISDGTNTNYADSVKGRFTISRDNAKNTVYLQMNSLKPEDTAVYYCAARFSSIVKYVGIGTDEYDYWGQGTQVTVSS",
    "Measurement name": "polyreactivity (PSR sort gate)",
    "Result": "low polyreactivity"
  }
]
